# Assayed Target: T1, human GLP-1 receptor (human, UniProt P43220 24-463)
# T1 construct: whole, on cells; also called hGLP-1R; human glucagon-like peptide-1 receptor
# Run Description: SPA competition vs [125I]-GLP-1, hGLP-1R membranes
*1 amine or outer side, *2 acyl side, *3 side chain or, on linkers, in order; H or OH if unused. Where no end group is shown, it is not given here. Side-chain parts run from the residue outwards. [ ]: non-standard residue; d: D form. The star is where a group is joined. αMePhe(2-F) = C[C@](N)(Cc1ccccc1F)C(=O)O; γGlu = O=C(O)[C@H](CCC(=O)[*:2])N[*:1]; αMeY = C[C@](N)(Cc1ccc(O)cc1)C(=O)O; 4Pal = N[C@@H](Cc1ccncc1)C(=O)O; αMeL = CC(C)C[C@](C)(N)C(=O)O; Lauroyl = CCCCCCCCCCCC(=O)*; Orn = NCCC[C@H](N)C(=O)O; AEEA = NCCOCCOCC(=O)O; Aib = CC(C)(N)C(=O)O
The binders listed here are annotated with their Ki.
The reply should contain only the number, in nM.

# example entries with known answers
# Binder, Ki / nM
rows = [
    ("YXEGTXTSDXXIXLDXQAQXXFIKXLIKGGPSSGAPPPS (Aib2, αMeF(2F)6, 4Pal10, Aib11, αMeL13, Orn16, Aib20, Orn21, K24(Z1), αMeY25, K28(Z1), C-term NH2; Z1=(γ-Glu)-AEEA2-(γ-Glu)-CO-(CH2)12-CO2H)", 0.254),
    ("YXEGTXTSDXSIXLDXIAQXEFIXXLIKGGKSSGAPPPS (Aib2, αMeF(2F)6, 4Pal10, αMeL13, Orn16, Aib20, D-Glu24, αMeY25, K28(Z1), K31(Z1), C-term NH2; Z1=AEEA2-(γ-Glu)-CO-(CH2)14-CH3)", 0.867),
    ("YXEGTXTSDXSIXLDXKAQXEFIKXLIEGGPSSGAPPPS (Aib2, αMeF(2F)6, 4Pal10, αMeL13, Orn16, K17(Z1), Aib20, K24(Z1), αMeY25, C-term NH2; Z1=AEEA2-(γ-Glu)-CO-(CH2)14-CH3)", 0.301),
    ("Y[Aib]EGT[αMePhe(2-F)]TSDK([AEEA-AEEA-γGlu-Lauroyl])[Aib]I[αMeL]LD[Orn]K([AEEA-AEEA-γGlu-Lauroyl])AQ[Aib][4Pal]FI[dE][αMeY]LIEGGPSSGAPPPS-NH2", 0.156),
    ("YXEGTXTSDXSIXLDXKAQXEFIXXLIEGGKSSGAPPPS (Aib2, αMeF(2F)6, 2Nal10, αMeL13, Orn16, K17(Z1), Aib20, D-Glu24, αMeY25, K31(Z1), C-term NH2; Z1=AEEA2-(γ-Glu)-CO-(CH2)12-CO2H)", 4.35),
]

Exercise: Which Ki is reported for this binder? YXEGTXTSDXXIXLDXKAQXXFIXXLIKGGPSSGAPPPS (Aib2, αMeF(2F)6, 4Pal10, Aib11, αMeL13, Orn16, K17(Z1), Aib20, Orn21, D-Glu24, αMeY25, K28(Z1), C-term NH2; Z1=AEEA3-(γ-Glu)-CO-(CH2)10-CH3)
Key: 0.15

Exercise: Give its Ki value. Item: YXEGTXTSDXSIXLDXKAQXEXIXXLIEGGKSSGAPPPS (Aib2, αMeF6, 4Pal10, αMeL13, Orn16, K17(Z1), Aib20, αMeF22, D-Glu24, αMeY25, K31(Z1), C-term NH2; Z1=AEEA2-(γ-Glu)-CO-(CH2)12-CO2H)
Key: 29

Exercise: Data request, read-out Ki, for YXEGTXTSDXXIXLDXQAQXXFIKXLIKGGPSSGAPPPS (Aib2, αMeF(2F)6, 4Pal10, Aib11, αMeL13, Orn16, Aib20, Orn21, K24(Z1), αMeY25, K28(Z1), C-term NH2; Z1=AEEA-Trx-(γ-Glu)-(10-(4-carboxyphenoxy)decanoyl))
Key: 0.169

Exercise: Would you mind telling me what Ki value was observed for YXEGTXTSDKSIXLDXKAQXEFIXXLIEGGPSSGAPPPS (Aib2, αMeF(2F)6, K10(Z1), αMeL13, Orn16, K17(Z1), Aib20, D-Glu24, αMeY25, C-term NH2; Z1=AEEA2-(γ-Glu)-CO-(CH2)14-CH3) ?
Key: 0.412

Exercise: Which Ki value belongs to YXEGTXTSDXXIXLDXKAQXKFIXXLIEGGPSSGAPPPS (Aib2, αMeF(2F)6, 4Pal10, Aib11, αMeL13, Orn16, K17(Z1), Aib20, K21(Z1), D-Glu24, αMeY25, C-term NH2; Z1=AEEA3-(γ-Glu)-CO-(CH2)10-CH3) ?
Key: 0.194

Exercise: Name the recorded Ki for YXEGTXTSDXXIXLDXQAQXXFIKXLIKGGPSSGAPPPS (Aib2, αMeF(2F)6, 4Pal10, Aib11, αMeL13, Orn16, Aib20, Orn21, K24(Z1), αMeY25, K28(Z1), C-term NH2; Z1=AEEA-Ahx-(γ-Glu)-(10-(4-carboxyphenoxy)decanoyl)) .
Key: 0.123

Exercise: Requested field: Ki. Item: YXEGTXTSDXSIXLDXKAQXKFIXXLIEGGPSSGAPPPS (Aib2, αMeF(2F)6, 4Pal10, αMeL13, Orn16, K17(Z1), Aib20, K21(Z1), D-Glu24, αMeY25, C-term NH2; Z1=AEEA2-(γ-Glu)-CO-(CH2)12-CO2H)
Key: 2.11
